B1: PBXIP1 (parent)
chain: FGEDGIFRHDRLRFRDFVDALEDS

# Variants of: B1
# Experiment Notes: protein stability index of a GFP-peptide fusion (GPS, HEK-293T) (PSI 1-6); higher = more stable;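 also: lentivirally expressed fusions sorted by FACS into six bins by GFP to DsRed ratio, PSI derived from sequencing read proportions per bin multiplied by bin number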
# Details: c terminus: a fixed tail appended
Observed Property: protein stability index
Lab note: jot down the number only; don't add units.

In plain terms, D4G has a documented protein stability index of 1.17

In plain terms, H9T has a documented protein stability index of 2.4

In plain terms, F1V has a documented protein stability index of 3.77

In plain terms, E3P has a documented protein stability index of 2.28

In plain terms, E22D has a documented protein stability index of 2.26

In plain terms, F14C has a documented protein stability index of 1.99

In plain terms, A20W has a documented protein stability index of 2.46

In plain terms, R13T has a documented protein stability index of 3.26

In plain terms, F1T has a documented protein stability index of 3.08

In plain terms, D10K has a documented protein stability index of 2.04

In plain terms, F1R has a documented protein stability index of 3.78

In plain terms, L12K has a documented protein stability index of 2.46

In plain terms, R8W has a documented protein stability index of 2.05

In plain terms, F7A has a documented protein stability index of 3.42

In plain terms, D16S has a documented protein stability index of 2.23

In plain terms, A20H has a documented protein stability index of 2.42

In plain terms, D19Q has a documented protein stability index of 2.49

In plain terms, D4C has a documented protein stability index of 2.52

In plain terms, A20V has a documented protein stability index of 2.49

In plain terms, R8E has a documented protein stability index of 4.23

In plain terms, F1Y has a documented protein stability index of 2.72

In plain terms, F1N has a documented protein stability index of 3.81

In plain terms, L12I has a documented protein stability index of 3.05

In plain terms, G2H has a documented protein stability index of 2.09

In plain terms, D10I has a documented protein stability index of 1.67

In plain terms, F17L has a documented protein stability index of 2.77

In plain terms, F7D has a documented protein stability index of 4.33

In plain terms, E22F has a documented protein stability index of 1.65

In plain terms, D19M has a documented protein stability index of 2.56

In plain terms, S24V has a documented protein stability index of 2.43

In plain terms, V18Q has a documented protein stability index of 3.49

In plain terms, F14M has a documented protein stability index of 3.23

In plain terms, D10F has a documented protein stability index of 2.16

In plain terms, G5N has a documented protein stability index of 2.34

In plain terms, V18A has a documented protein stability index of 2.73

In plain terms, F14N has a documented protein stability index of 3.71

In plain terms, E22H has a documented protein stability index of 2.37

In plain terms, D23T has a documented protein stability index of 2.55

In plain terms, L21T has a documented protein stability index of 3.13

In plain terms, E3A has a documented protein stability index of 2.75

In plain terms, V18F has a documented protein stability index of 2.45

In plain terms, D4N has a documented protein stability index of 1.98

In plain terms, G2E has a documented protein stability index of 3.73

In plain terms, D10N has a documented protein stability index of 2.83

In plain terms, R15H has a documented protein stability index of 2.48

In plain terms, D4M has a documented protein stability index of 1.79

Origin of the recorded values: the supplement of paper PMC10567573
